Source: the METLIN SMRT retention time set (Domingo-Almenara et al. 2019)

# experimentNotes: gradient 5% acetonitrile 3 min, to 50% in 2 min, to 85% in 15 min, held 3 min, 100 µL/min
# setupConditions: column: Zorbax Extend-C18 2.1 x 50 mm; eluents: water / acetonitrile, 0.1% formic acid
experimentalReadout: RP-LC retention time
Respond with the figure and its unit, in that order.

Q: // returns reported RP-LC retention time for input Cc1ccc(C(=O)NCc2cnoc2-c2ccc(F)cc2)cn1
Result: 665 s

Q: // returns reported RP-LC retention time for input COc1ccc(OC)c(CNC(=O)c2nnc(-c3ccc(S(=O)(=O)N(C)C)cc3)o2)c1
Result: 854 s

Q: // returns reported RP-LC retention time for input Cc1ccc(Sc2nccnc2N2CCCC(C(=O)NCc3ccc4c(c3)OCO4)C2)cc1 (stereo unspecified)
Result: 1060 s

Q: // returns reported RP-LC retention time for input CC(C(=O)NCCc1c[nH]c2ccc(Cl)cc12)C1CCN(S(=O)(=O)c2cccs2)CC1 (stereo unspecified)
Result: 921 s

Q: // returns reported RP-LC retention time for input CCC(CC)CN1CCC(n2c(C)cnc2-c2cccnc2)C1 (stereo unspecified)
Result: 545 s

Q: // returns reported RP-LC retention time for input CCn1cc(-c2nc(C(=O)Nc3cc(F)ccc3F)cs2)c2cccnc21
Result: 1220 s

Q: // returns reported RP-LC retention time for input c1csc(-c2nc(-c3ccc4c(c3)ncn4CCN3CCCC3)no2)c1
Result: 614 s

Q: // returns reported RP-LC retention time for input Clc1cc(Cl)cc(-c2ccc(CNCc3cccnc3)o2)c1
Result: 733 s

Q: // returns reported RP-LC retention time for input Cc1ccc(CNC(=O)CN2C(=O)C3CCCN3C(=O)c3cccc(C)c32)cc1 (stereo unspecified)
Result: 736 s

Q: // returns reported RP-LC retention time for input COc1ccccc1NS(=O)(=O)c1cn(C(C)C)c2ncccc12
Result: 886 s

Q: // returns reported RP-LC retention time for input Cc1ccc(Cl)cc1NC(=O)N1CCC(CC(=O)N2CCCCC2)CC1
Result: 801 s

Q: // returns reported RP-LC retention time for input O=c1ccc(N2CCC(NS(=O)(=O)c3cccnc3)CC2)nn1CC1CC1
Result: 700 s

Q: // returns reported RP-LC retention time for input CSc1cccc(NC(=O)Cn2c(=O)cc(-c3nc(C4CC4)no3)c3ccccc32)c1
Result: 686 s

Q: // returns reported RP-LC retention time for input Cc1cccc(C)c1NC(=O)Cn1nc2n(c1=O)CCCC2
Result: 632 s

Q: // returns reported RP-LC retention time for input COC(=O)c1nc(NC(=O)Cn2nc3c(cc2=O)CCCCC3)sc1CC(C)C
Result: 941 s

Q: // returns reported RP-LC retention time for input O=C(Nc1cccc(C(F)(F)F)c1)NC1CCN(c2ccccc2)C1=O (stereo unspecified)
Result: 926 s

Q: // returns reported RP-LC retention time for input Nc1nc(N2CCN(C3CCCCC3)CC2)ncc1C(=O)NCc1ccccc1
Result: 627 s

Q: // returns reported RP-LC retention time for input COc1ccc(/C=C/c2ccccc2F)cc1
Result: 1170 s

Q: // returns reported RP-LC retention time for input CCc1nn2c(S(=O)(=O)NC3CCCC3)c(C)nc2s1
Result: 799 s

Q: // returns reported RP-LC retention time for input COc1cc2c(cc1OC)C(C(=O)NCc1ccccn1)C1c3ccccc3CCN1C2=O (stereo unspecified)
Result: 616 s

Q: // returns reported RP-LC retention time for input N#CC[C@@H](C1CCCC1)n1cc(-c2ncnc3[nH]ccc23)cn1
Result: 689 s

Q: // returns reported RP-LC retention time for input COC(=O)c1ccccc1NC(=O)CC1CCCCN1S(=O)(=O)c1ccccc1 (stereo unspecified)
Result: 968 s

Q: // returns reported RP-LC retention time for input Cc1ccc(-c2nnc(N3CCC(C(=O)NCc4cccs4)CC3)o2)cc1
Result: 933 s

Q: // returns reported RP-LC retention time for input NC(=O)C1CCCN(C(=O)c2ccc(F)cc2F)C1 (stereo unspecified)
Result: 599 s

Q: // returns reported RP-LC retention time for input Cc1ccn2c(NC(=O)c3ccc(C)c(C)c3)c(-c3ccccc3)nc2c1
Result: 709 s

Q: // returns reported RP-LC retention time for input Cc1cc(C)cc(Nc2cc(C)n3c(=O)n(Cc4cc(=O)n5ccccc5n4)nc3n2)c1
Result: 993 s

Q: // returns reported RP-LC retention time for input COc1ccc(-c2ccnc3nc(CCc4ccccc4)nn23)c(F)c1
Result: 963 s

Q: // returns reported RP-LC retention time for input CNC(=O)c1cn(-c2ccc(SCC(=O)Nc3ccc4c(c3)OCCO4)nn2)cn1
Result: 645 s

Q: // returns reported RP-LC retention time for input CCOC(=O)CNC(=O)Nc1ccccc1-c1cc2ccccc2[nH]1
Result: 866 s

Q: // returns reported RP-LC retention time for input CN(C)CCCn1c(C2CC(=O)N(c3ccc(F)cc3)C2)nc2ccccc21 (stereo unspecified)
Result: 590 s

Q: // returns reported RP-LC retention time for input Cc1ccc(NS(=O)(=O)c2cc3c(s2)CCN(C(=O)C2CCC2)C3)cc1
Result: 864 s

----------
So I've got a bunch of compounds here, and I need their RP-LC retention time values.
# experimentNotes: gradient 5% acetonitrile 3 min, to 50% in 2 min, to 85% in 15 min, held 3 min, 100 µL/min
# setupConditions: column: Zorbax Extend-C18 2.1 x 50 mm; eluents: water / acetonitrile, 0.1% formic acid
# number only, unit s dropped from output

Q: // returns reported RP-LC retention time for input Cc1ccccc1CNC(=O)C1CCCN(C(=O)C2Sc3ccccc3NC2=O)C1 (stereo not given)
Result: 760

Q: // returns reported RP-LC retention time for input CCCc1noc(-c2cccnc2N2CCCN(Cc3cc(C)ccc3C)CC2)n1
Result: 790

Q: // returns reported RP-LC retention time for input Cc1ccc(C)c(N2CCN(c3ccc(-c4nc(-c5cccc(F)c5)no4)cn3)CC2)c1
Result: 602

Q: // returns reported RP-LC retention time for input O=C(c1ccc[nH]1)N1CCC2(CC1)NC(=O)N(Cc1cccc(Cl)c1)C2=O
Result: 769

Q: // returns reported RP-LC retention time for input Cc1cc(C(=O)Nc2ccc3nc(N4CCN(C)CC4)cc(C)c3c2)ccc1[N+](=O)[O-]
Result: 595

----------
# experimentNotes: gradient 5% acetonitrile 3 min, to 50% in 2 min, to 85% in 15 min, held 3 min, 100 µL/min
# setupConditions: column: Zorbax Extend-C18 2.1 x 50 mm; eluents: water / acetonitrile, 0.1% formic acid
So I've got a bunch of molecules here, and I need their RP-LC retention time values.
# number only, unit s dropped from output

Q: // returns reported RP-LC retention time for input O=C(Cn1c(C(F)(F)F)nc2cc3c(cc21)OCCO3)NCc1ccc2c(c1)OCCCO2
Result: 818

Q: // returns reported RP-LC retention time for input CCc1nc2cc(-c3noc(-c4ccc(C)c(NC(C)=O)c4)n3)ccc2o1
Result: 895

Q: // returns reported RP-LC retention time for input COc1ccc(C)cc1NC(=O)CN1C(=O)C2CCCCN2c2ccc(S(=O)(=O)N(C)C)cc21 (centres undefined)
Result: 1000

Q: // returns reported RP-LC retention time for input CCc1nc(-c2csc(S(=O)(=O)N3CCC(C(=O)NCc4cccnc4)CC3)c2)no1
Result: 645

Q: // returns reported RP-LC retention time for input CCN(Cc1ccc(OC)cc1)Cc1cc(=O)n2ccc(C)cc2n1
Result: 619

Q: // returns reported RP-LC retention time for input CC(C)C(=O)Nc1ccc(C2(C(=O)O)CCC2)cc1
Result: 720

Q: // returns reported RP-LC retention time for input COc1ccc(OC)c(NC(=O)N2CCN(CCn3c(C(F)(F)F)nc4cccnc43)CC2)c1
Result: 642

Q: // returns reported RP-LC retention time for input CC(C)CNC(=O)NC(C(=O)N1CCc2ccccc21)c1ccccc1 (centres undefined)
Result: 864

Q: // returns reported RP-LC retention time for input COc1ccc(CN2CCNCC2)c(OC)c1OC
Result: 578

----------
# experimentNotes: gradient 5% acetonitrile 3 min, to 50% in 2 min, to 85% in 15 min, held 3 min, 100 µL/min
# setupConditions: column: Zorbax Extend-C18 2.1 x 50 mm; eluents: water / acetonitrile, 0.1% formic acid
So I've got a bunch of molecules here, and I need their RP-LC retention time values.
# number only, unit s dropped from output

Q: // returns reported RP-LC retention time for input COc1ccc(OC)c(CNC(=O)c2ccc3c(c2)NC(=O)C2CCCCN32)c1 (stereo not given)
Result: 806

Q: // returns reported RP-LC retention time for input CCCN(CC1CCOC1)C(=O)c1ccccc1Br (stereo not given)
Result: 801

Q: // returns reported RP-LC retention time for input NS(=O)(=O)c1ccc(NS(=O)(=O)c2ccc3onc(C(=O)N4CCCCC4)c3c2)cc1
Result: 782

Q: // returns reported RP-LC retention time for input CC(C)CCNC(=O)C1(C)Cn2nc(C(=O)NCCc3ccccc3)cc2C(=O)N1C (stereo not given)
Result: 791

Q: // returns reported RP-LC retention time for input Cc1c(C(=O)C(=O)NCc2ccc3c(c2)OCO3)c2ccccc2n1C
Result: 820
